These entries and their values trace back to patent US20210130436A1.

TARGET_OR_SYSTEM: T1, human CTLA-4 (human, UniProt P16410 36-223)
T1 construct: also called huCTLA4
T1 sequence (P16410 36-223): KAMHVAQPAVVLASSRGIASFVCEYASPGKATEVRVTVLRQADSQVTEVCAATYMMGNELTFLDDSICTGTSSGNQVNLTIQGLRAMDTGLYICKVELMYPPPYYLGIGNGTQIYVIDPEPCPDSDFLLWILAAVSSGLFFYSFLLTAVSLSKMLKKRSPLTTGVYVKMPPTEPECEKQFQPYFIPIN
EXPERIMENT_SUMMARY: flow cytometry on CHO cells stably expressing CTLA4
Could you please report measured MFI at 33.3 nM for the items listed next?
Supply the numeric figure in MFI, leaving out any unit text.

q: Endpoint output: MFI at 33.3 nM of CD80 E35D/D46V/M47L/V68M/L85Q/E88D IgV-Fc, EAAAK linker (Fc fusion, not shown: a dimerising Fc or GST) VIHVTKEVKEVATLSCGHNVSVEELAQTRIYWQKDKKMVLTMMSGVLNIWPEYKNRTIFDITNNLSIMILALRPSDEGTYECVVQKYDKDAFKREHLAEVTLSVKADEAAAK . Value?
a: 29000

q: Please report the recorded MFI at 33.3 nM for CD80 E35D/D46V/M47L/V68M/L85Q/E88D IgV-Fc, GS(G4S)5 linker (Fc fusion, not shown: a dimerising Fc or GST) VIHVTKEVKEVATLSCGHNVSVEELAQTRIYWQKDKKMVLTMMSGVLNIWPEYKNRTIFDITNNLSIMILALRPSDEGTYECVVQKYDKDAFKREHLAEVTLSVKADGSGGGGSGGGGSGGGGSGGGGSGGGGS .
a: 26600
